Listing: Full length oligonucleotide, Kidney of selected substances
assay.protocol: Oligonucleotide concentration in tissues by LC-MS/MS after subcutaneous administration in beagle dogs (Example 8)
Format: in vivo
conditions: 30 mg/kg subcutaneous, 48 hours after the last dose, kidney
# unit: µg/g | format: bare number

{"substance": "829994 (GGAGGCAGGGCCGCGA; 3-10-3 cEt gapmer, further chemistry not given here) [compound 829994]", "Full length oligonucleotide, Kidney / µg/g": 894}
{"substance": "830121 (AGAATCAAGCCCTGGC; 3-10-3 cEt gapmer, further chemistry not given here) [compound 830121]", "Full length oligonucleotide, Kidney / µg/g": 1468}

Kindly review the next substance as well.
Any idea what Full length oligonucleotide, Kidney was measured for 798781 (CGTAAGATTCACAGCA; 3-10-3 cEt gapmer, further chemistry not given here) [compound 798781] ? 3300

###

System: human SMAD7 mRNA
assay.protocol: Antisense inhibition of human SMAD7 mRNA expression in Hep3B cells by 3-10-3 cEt gapmers, 10,000 nM, electroporation (Example 2)
Type: cell-based
conditions: Hep3B cells, 10,000 nM antisense oligonucleotide, electroporation, approximately 24 hours, RT-PCR primer probe set RTS5062, relative to untreated control cells
Strand notation (5' to 3'): a small letter for the sugar, then the base; units joined by * are phosphorothioate-linked, units joined directly phosphodiester-linked; [ ] holds rarer units or linkages, { } end groups; capitals alone tell only the bases. k = constrained ethyl (cEt); [5mC] = 5-methylcytosine; d = 2'-deoxy (DNA)
measurement.type: % Inhibition (%)
# unit: % | format: bare number

Worked set:
{"substance": "799951 (antisense kT*k[5mC]*kT*dT*dA*dA*dA*dA*dA*dA*dA*dG*dG*kG*kA*kG) [compound 799951]", "measurement.type": "% Inhibition", "meas.value": 0}
{"substance": "798911 (kG*k[5mC]*kA*d[5mC]*dG*d[5mC]*dG*dG*d[5mC]*dT*dA*d[5mC]*d[5mC]*kG*kG*k[5mC]; antisense) [compound 798911]", "measurement.type": "% Inhibition", "meas.value": 0}
{"substance": "798841 (k[5mC]*kT*kG*dA*d[5mC]*dT*d[5mC]*dT*dT*dG*dT*dT*dG*kT*k[5mC]*k[5mC]; antisense) [compound 798841]", "measurement.type": "% Inhibition", "meas.value": 0}

Any idea what % Inhibition was measured for 799837 (antisense kT*k[5mC]*kA*dT*dA*dA*dG*d[5mC]*dA*dT*dA*dG*dA*kT*kT*kT) [compound 799837] ? 38

Try the substance 799912 (antisense k[5mC]*kT*k[5mC]*dA*dG*dA*dG*dG*dA*dA*dG*dG*dG*kT*kG*kG) [compound 799912] 22

Try the substance 798839 (kG*kT*kT*dG*dT*d[5mC]*d[5mC]*dG*dA*dA*dT*dT*dG*kA*kG*k[5mC]; antisense) [compound 798839] 47

Try the substance 800071 (antisense kT*kG*kT*dA*dT*dT*dT*dG*dT*dT*dA*dA*d[5mC]*kA*kA*kA) [compound 800071] 2

Try the substance 800098 (antisense kT*kT*kT*dT*dA*dG*dG*dG*d[5mC]*d[5mC]*dT*d[5mC]*dA*kA*kA*kA) [compound 800098] 1
